Where do these numbers come from? They come from PubChem BioAssay (NCI).

GI50 values for the molecules below.
Test system: IGROV1 ovarian
METHOD_DESCRIPTION: NCI tumour cell line growth inhibition, 48 h

Worked cases, answers included:
Identify the reported GI50 for the following entry. "COc1ccc(-c2c3c(nc4n[nH]c(-c5ccc(Cl)cc5)c24)-c2ccccc2C(=O)C3=O)cc1"
1540 nM

# return recorded GI50 for input "NC1(Cc2ccc(Cl)cc2)CCN(c2ncnc3[nH]ccc23)CC1"
1010 nM

Report measured GI50; entry is "CN1CCN(c2nc(-c3csc(-c4cccs4)n3)cc3ccccc23)CC1"
1570 nM

Continuing:
Quick one: give measured GI50 for "CCCCNc1ccc(Nc2ccccc2)cc1"
5610 nM

Let me know recorded GI50 for "N#CC(C#N)=C/C=C(\Sc1ccc(F)cc1Cl)c1ccc(Cl)cc1" , thanks.
1810 nM

Quickly give me recorded GI50 for Cc1cc(O)c(C2=NN(c3ccc(S(N)(=O)=O)cc3)C(/C=C/c3ccccc3)C2)cc1Cl (stereo unspecified)
4320 nM

----------
System: SF-539 CNS
METHOD_DESCRIPTION: NCI tumour cell line growth inhibition, 48 h
TGI values for the molecules below.

Tell us which TGI value is on record for CN(CCCCCl)P(=O)(OCc1ccc([N+](=O)[O-])o1)OCC1OC(n2cnc([N+](=O)[O-])c2N)C(O)C1O (stereo unspecified)
> 100 µM

Return TGI for the following molecule: "CCc1c(-c2ccc(OC)cc2)oc(OC)c(C)c1=O"
> 100 µM

State its TGI: "CCN1C(=NCCO)NS(=O)(=O)c2ccccc21"
> 100 µM

Give the reported value of TGI for this record: Brc1cccc(C2ON=C(c3ccccc3)N2C23CC4CC(CC(C4)C2)C3)c1 (stereo unspecified)
> 10 µM

Return the recorded TGI value; entry: "Cn1cc(C2=C(Nc3ccccc3)C(=O)NC2=O)c2ccccc21"
> 25 µM

Answer with the recorded TGI of COc1ccc(C2C(=O)c3c(OC)cc(OC)cc3OC2c2cccnc2)cc1 (stereo unspecified) only.
> 100 µM

Please look at this molecule and report its TGI: CC1SC2(CCCCC2)N(NC(=O)c2[nH]c3ccc(Br)cc3c2-c2ccccc2)C1=O (stereo unspecified)
> 100 µM

Provide one value: measured TGI of "CN1CCN(c2nc(-c3csc(-c4cccs4)n3)cc3ccccc23)CC1"
3.04 µM

Others:
Give TGI for "CC12CCC(CC1)C(C)(C)O2"
90.1 µM

Input CNc1ncnc2c1nc(NC1CCCC1)n2C1OC(CO)C(O)C1O (stereo unspecified) , output reported TGI.
> 100 µM

Provide TGI value for the following molecule: "O=c1c(Cc2ccc(Cl)cc2)nnc2sc(-c3ccc(-c4ccc(Cl)cc4Cl)o3)nn12"
> 100 µM

Dear colleague, please send me the reported TGI for O=C1CSC(c2ccc(Cl)cc2Cl)N1c1ccc(Oc2ccc(Cl)cc2)c(Cl)c1 (stereo unspecified) when you can.
86.7 µM

Supply recorded TGI for "O=C(O)/C=C/c1c[nH]c(=O)[nH]c1=O" here.
> 500 µM

----------
The compounds listed here are annotated with their TGI.
System: SK-MEL-2 melanoma
METHOD_DESCRIPTION: NCI tumour cell line growth inhibition, 48 h

Please report TGI for the following compound: "O=Cc1ccc(-c2ccc(-c3nc4ccccc4s3)cc2)s1"
> 100 µM

Given CC(C)(C)N/N=C(\C(=O)NC1=C(Cl)C(=O)c2ccccc2C1=O)C1C=CCS1(=O)=O (stereo not drawn) , respond with its TGI.
24.9 µM

Find the measured TGI of "C(#CP(c1ccccc1)c1ccccc1)P(C#CP(c1ccccc1)c1ccccc1)c1ccccc1" and report it.
> 100 µM

Return TGI (reported value) for this compound: COc1cc2oc3c(c(=O)c2c(O)c1/C=C/C(C)C)C(C=C(C)C)Oc1cc(O)ccc1-3 (stereo not drawn)
29.9 µM

Write down TGI measured for item NC(CSSCC(N)C(=O)O)C(=O)O (stereo not drawn)
> 100 µM

Given "Cc1c2c(n(CC(c3ccccc3)c3ccccc3)c1C)NN=C(C#N)S2(=O)=O" , respond with its TGI.
> 100 µM

Note TGI for the compound shown: COc1ccccc1C(=O)NCC1CCCN2CCCCC12 (stereo not drawn)
> 100 µM

// Input: "O=C(O)[C@H](CCC[C@H]1C(=O)O[C@H](c2ccccc2)[C@H](c2ccccc2)N1C(=O)OCc1ccccc1)N[C@@H](c1ccccc1)[C@H](O)c1ccccc1" . Output its TGI only.
40.8 µM

Tell me TGI reported for Brc1cccc(C2ON=C(c3ccccc3)N2C23CC4CC(CC(C4)C2)C3)c1 (stereo not drawn)
> 10 µM

Identify the reported TGI for the following entry. "COc1ccc(-c2c3c(nc4n[nH]c(-c5ccc(Cl)cc5)c24)-c2ccccc2C(=O)C3=O)cc1"
3.3 µM

Item CC1OC(OC2C(O[C@H]3CC[C@@]4(C)C(=CC[C@H]5[C@@H]6C[C@@H]7O[C@]8(CC[C@@H](C)CO8)[C@@H](C)[C@@H]7[C@@]6(C)CC[C@@H]54)C3)OC(CO)C(O)C2O)C(O)C(O)C1O (stereo partly drawn) : provide TGI
6.21 µM

Name the recorded TGI of the item NC(=O)NC1C(C(=O)O)N(Cc2ccccc2)C(=O)N1Cc1ccccc1 (stereo not drawn) in your answer.
> 100 µM

Give recorded TGI. COC1C(N(C)C)=C(c2ccccc2)C(=O)N2CCc3ccccc3C12 (stereo not drawn)
> 100 µM

Give me measured TGI, please, for this compound: "CCCCCCCCCCCc1c(O)c(=O)c2c(oc3c(=O)c(CCCCCCCCCCC)c(O)c(=O)c3n2-c2ccc(N(C)C)cc2)c1=O"
50.4 µM

Quickly give me recorded TGI for "Cn1cc(S(=O)(=O)NC(=O)Nc2ccc(Cl)cc2)c(=O)c2ccc(F)cc21"
> 100 µM

Recall and state the measured TGI for "COc1ccc(-c2c(-c3ccccc3)c(C)nc3nc(SC)nc(SC)c23)cc1OC" .
60.6 µM

Report measured TGI; entry is "CC(C)(NC(=O)OCc1ccccc1)C(=O)OC(=O)C(C)(C)NC(=O)OCc1ccccc1"
> 100 µM

Please report TGI for the following compound: "CC(C)=CC(=O)c1[nH]c2ccccc2c1CC(=O)NCCc1cncn1C"
> 100 µM

----------
Tested on: T-47D breast
METHOD_DESCRIPTION: NCI tumour cell line growth inhibition, 48 h
QUANTITY_KIND: TGI (µM)
Answer format: numeric, µM implied, no suffix.

Report TGI for O=C1N(Cc2ccccc2Cl)c2ccccc2C12NN=C(c1cccc(Cl)c1)S2 (stereo not drawn)
3.1

Indicate the recorded TGI value for this molecule: "CC(=O)Nc1n[n+]([O-])c2cc(C)ccc2[n+]1[O-]"
11.4

Let me know recorded TGI for "Cl.Fc1c[c-]c(-c2ccccn2)c(F)c1.[Pt].c1ccc([PH+](C[PH+](c2ccccc2)c2ccccc2)c2ccccc2)cc1" , thanks.
1.02

Identify measured TGI associated with "O=C1CC/C(=C/COc2cc(=O)oc3ccccc23)O1"
19.8

For CC1=Nc2c([nH]c(=S)[nH]c2=O)NC(c2c(Cl)cccc2Cl)C1 (stereo not drawn) , write its TGI.
3.21

Fill in TGI for record "O=C(/C(=C\I)c1ccccc1)c1ccccc1"
6.02

Now take the following molecule into account.
Entry CC1=CP(=O)(c2c(C(C)C)cc(C(C)C)cc2C(C)C)CCC1Cl (stereo not drawn) needs its TGI filled in; supply it.
31.9

----------
Test system: KM12 colon
METHOD_DESCRIPTION: NCI tumour cell line growth inhibition, 48 h; in the data active = GI50 below about 0.43 µM; inactive = the rest
Respond using exactly one of the listed classes: Yes = active, No = inactive

Example cases with answers are listed next.
Check the results log: what was the call for "CN(CCC(=O)/C(=C\c1ccccc1)c1ccc(Cl)cc1)Cc1ccccc1" ?
No

GET /call?item= CC1SC2(CCCCC2)N(NC(=O)c2[nH]c3ccc(Br)cc3c2-c2ccccc2)C1=O (centres undefined) returns the recorded outcome of this test.
No

Field: outcome | Entry: "COc1cc(Cl)cc(-c2nn(-c3cccc(NC(=O)Nc4ccc(Cl)c(Cl)c4)c3)cc2-c2ccncc2)c1"
No

Outcome logged for O=C1N(Cc2ccccc2Cl)c2ccccc2C12NN=C(c1cccc(Cl)c1)S2 (centres undefined) in this assay:
No

Please let me know the test result on file for "CC(=O)O[C@H]1CC[C@@]2(C)C(=C/C(=N/OCCN3CCCC3)[C@H]3[C@@H]4CC[C@H](OC(C)=O)[C@@]4(C)CC[C@@H]32)C1" .
No

Others:
Check the results log: what was the call for COC(=O)C(C(=O)OC)C(Br)C(Br)C(Br)c1ccccc1 (centres undefined) ?
No

Per the records of this test, what outcome belongs to "Cc1nc2cc(Nc3nc(Nc4ccc(F)cc4)nc(N4CCOCC4)n3)ccc2n1Cc1ccccc1" ?
No

Field: outcome | Entry: "O=C1/C(=C/c2ccc(O)cc2)COc2ccc(O)c(O)c21"
No

Check the results log: what was the call for COc1c(N2CCN(CN3C(=O)C(=O)c4cc(Cl)ccc43)C(C)C2)c(F)cc2c(=O)c(C(=O)O)cn(C3CC3)c12 (centres undefined) ?
No

# lookup: test call for "CCSC[C@@H]1C[C@](O)(c2ccc(F)cc2)[C@@H](c2ccc(F)cc2)O1"
No

Per the records of this test, what outcome belongs to "CC(C)(C)OC(=O)NCc1cccc(N=C=S)c1" ?
No

Recorded call for "COc1cc(C)c2sc3ccccc3c(=O)c2c1NCCN(C)C" ?
No
